Biological target: T1, phosphorylated Rab10 in lysates of HEK cells overexpressing LRRK2 (Homo sapiens, UniProt P61026)
T1 construct: expressed in transfected cells; host or cells: HEK cells overexpressing LRRK2
T1 sequence (P61026 1-200): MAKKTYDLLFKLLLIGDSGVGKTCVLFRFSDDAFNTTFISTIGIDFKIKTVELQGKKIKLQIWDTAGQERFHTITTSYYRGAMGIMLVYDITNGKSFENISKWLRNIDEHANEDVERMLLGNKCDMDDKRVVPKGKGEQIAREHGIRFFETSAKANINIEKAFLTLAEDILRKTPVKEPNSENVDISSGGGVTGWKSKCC
Test: Sandwich ELISA (diagnostic), HEK cells overexpressing LRRK2
Type: binding
Settings: DMSO / LRRK2 inhibitor A RLU
Description: Sandwich ELISA (Diagnostic) with Anti-Phospho-Rab10 Antibody as the Capture Antibody: ELISA plates were prepared by coating white Nunc MaxiSorp 384 well plates (Thermo Fisher #460372/Sigma #P6491) with capture antibody for 1 hour at room temperature on a shaking platform. […] Afterwards plates were read on the Synergy plate reader to measure relative light units (RLU). […]
MEASURE NAME: Sandwich ELISA (diagnostic), Ratio
Lab note: jot the number down without any unit.

Use these answered entries as a reference point.
Clone 256-6: anti-phosphorylated (pT73) Rab10 rabbit monoclonal antibody; VH SEQ ID NO:53, VL SEQ ID NO:56 (antibody, V domains shown) VH: METGLRWLLLVAVLKGVQCQSVEESGGRLVTPGTPLTLTCTVSGFSLSNYAMVWVRQAPGKGLEYIGLISRSGVTYYATWAKGRFTISKASTTVDLKIASPTTGDTATYFCVRDYDANGWSGFTIWGPGTLVTVSA VL: MDTRAPTQLLGLLLLWLPGAICDPVMTQTPSSTSAAVGGTVTINCQSSQSVYGNNYLSWYQQKPGQPPKLLIYKASTLASGVPSRFKGSGSGTQFTLTISDLDCDDAATYYCAGAASDTRFFGGGTEVVVK ... 77.37
Clone 5: anti-phosphorylated (pT73) Rab10 rabbit monoclonal antibody; VH SEQ ID NO:1, VL SEQ ID NO:5 (antibody, V domains shown) VH: METGLRWLLLVAVLKGVQCQSVEESGGRLVTPGTPLTLTCTVSGFSLSSYAMVWVRQAPGKGLEYIGLISRSGVTYYATWAKGRFTISKASTTVDLKIASPTTGDTATYFCVRDYDINGWSGFTIWGPGTLVTVSA VL: MDTRAPTQLLGLLLWLPGAICDPVMTQTPSSTSAAVGGTVTINCQSSQSVYGNNYFSWYQQKPGQPPKLLIYKASTLASGVPSRFKGSGSGTQFTLTISDLECDDAATYYCAGAASDTRFFGGGTELVVN ... 23.63
Clone 133-2: anti-phosphorylated (pT73) Rab10 rabbit monoclonal antibody; VH SEQ ID NO:31, VL SEQ ID NO:35 (antibody, V domains shown) VH: METGLRWLLLVAVLKGVQCQEQLVESGGGLVQPEGSLTLTCKASGFDLSSHYYMCWVRQAPGKGLEWIVCISNGSGNTYYASWAKGRFTISKTSSTTVTLHMTSLTVADTATYFCARNFGSNYGDAFDPWGPGTLVTVSS VL: MDTRAPTQLLGLLLLWLPGATFAQVLTQTPSPVSAAVGGTVTISCQSSKSVYSNNYLSWYQQKPGQPPKLLIYSASILASGVPSRFSGSGSGTQFTLTISGVQCDDAATYYCQGSYAGSGWYIGFGGGTEVVVK ... 2.25
Clone 19-4: anti-phosphorylated (pT73) Rab10 rabbit monoclonal antibody; VH SEQ ID NO:17, VL SEQ ID NO:18 (antibody, V domains shown) VH: METGLRWLLLVAVLKGVQCQSVEESGGRLVTPGTPLTLTCTVSGFSLSSYAMVWVRQAPGKGLEYIGLISRSGVTYYATWAKGRFTISKASTTVDLKIASPTTGDTATYFCVRDYDSAGWSGFTIWGPGTLVTVSA VL: MDTRAPTQLLGLLLLWLPGAICDPVMTQTPSSTSAAVGGTVTINCQSSQSVYGNNYLSWYQQKPGQPPKLLIYKASTLASGVPSRFVGSGSGTQFTLTISDLECDDAATYYCAGAASDTRFFGGGTELVVN ... 37.40

Next:
Exam item: Provide one value: measured Sandwich ELISA (diagnostic), Ratio of Clone 153-2: anti-phosphorylated (pT73) Rab10 rabbit monoclonal antibody; VH SEQ ID NO:39, VL SEQ ID NO:43 (antibody, V domains shown) VH: METGLRWLLLVAVLKGVQCQSVEESGGRLVTPGTPLTLTCTASGFSLSTYYMSWVRQAPGKGLEWIGIINTGGIVHYANWVRGRFTISKTSTTVDLRITSPTAEDTATYFCARAYSADRLDLWGQGTLVTVSS VL: MDTRAPTQLLGLLLLWLPGATFAAVLTQTPSPVSAAVGGTVTISCQSSESVYGNNRLSWYQQKPGQPPKLLMYYASTLASGVPSRFRGSGSGTQFTLTISDVQCDDAASYYCLGGYKRDSNNAFGGGTEVVVK
Marked response: 141.26
